- Tested on: NCI/ADR-RES
- assay-method-text: NCI tumour cell line growth inhibition, 48 h
The source made the active and inactive calls. Cut-off read from the data, not from the text of the source: active = GI50 up to about 1.1 µM and inactive = higher.
// GI50 lookup, one value per entry

1. CCO/C=N\C1=C(C#N)SC2=N/C(=C\c3ccc(OC)cc3)C(=O)N21; > 100 µM (inactive)
2. COc1ccc(/C=C2\OC(=O)C(Cl)=C2c2ccc(OC)c(Cl)c2)cc1; 21.4 µM (inactive)
3. OC(C/C=N/Nc1ccccc1)(C(F)(F)Cl)C(F)(F)Cl; > 10 µM (inactive)

Lookup: Query: GI50; subject: "CC(C)(C)N1CSC(=S)N(Cc2ccco2)C1"
Found: 4.11 µM (inactive)

Lookup: Query: GI50; subject: O=CNC(Cc1c[nH]cn1)C(=O)O (stereo unspecified)
Found: > 100 µM (inactive)

Lookup: Query: GI50; subject: "Nc1c2c(nc3ccccc13)CCCc1ccccc1-2"
Found: 20.3 µM (inactive)

----------
- Test system: DLD-1
- assay-method-text: NCI tumour cell line growth inhibition, 48 h
Activity calls are given as the source filed them. Cut-off read from the data, not from the text of the source: active = GI50 up to about 1.1 µM and inactive = higher.
reported-property: GI50

Record excerpt, results attached:
1. COc1ccc2[nH]c3c4c(cc(-c5ccccc5)c3c2c1)C(=O)N(c1ccccc1)C4=O; > 53 µM (inactive)
2. COc1cc2ccc(CC#N)cc2cc1OC; > 100 µM (inactive)
3. CNC(=O)OCc1c(CO)nc(SC)n1C; > 100 µM (inactive)
4. CC1(C)OC2OC(/C=C/[N+](=O)[O-])C3OC(C)(C)OC3C2O1 (stereo unspecified); 1.61 µM (inactive)
5. CCCCN(CCCC)c1c([N+](=O)[O-])c(=O)nc2ccccn12; 35.4 µM (inactive)
6. Nc1nnc(NC(=O)C2=NS(=O)(=O)c3cc(S(N)(=O)=O)c(Cl)cc3N2)[nH]1; > 100 µM (inactive)
7. NN; 296 µM (inactive)
8. CCN(CC)C(=S)SCC(=O)Nc1nc2c(s1)CCCC2; 94 µM (inactive)

Lookup: Query: GI50; subject: Nc1nc2c(c(=O)[nH]1)NC(CO)CN2 (stereo unspecified)
Found: > 100 µM (inactive)

Lookup: Query: GI50; subject: "Cn1cnc([N+](=O)[O-])c1Sc1nccn1-c1cccc2ccccc12"
Found: 24.2 µM (inactive)

Lookup: Query: GI50; subject: OCC(O)C(OC1OC(CO)C(O)C(O)C1O)c1nn(-c2ccccc2)c2nc3cc(Cl)c(Cl)cc3cc12 (stereo unspecified)
Found: > 100 µM (inactive)

----------
// GI50 lookup, one value per entry
- Tested on: SNB-78
- assay-method-text: NCI tumour cell line growth inhibition, 48 h
Activity calls are given as the source filed them. Rule as the data show it: active = GI50 up to about 1.1 µM and inactive = higher.

Record excerpt, results attached:
1. CCC(/C(=N\Nc1c(Cl)cc(Cl)cc1Cl)c1ccccc1)n1ccnc1C (centres undefined); 19.1 µM (inactive)
2. C[Si](C)(C)C(Sc1ccccc1)(Sc1ccccc1)Sc1ccccc1; > 100 µM (inactive)
3. COC1=C(C(=O)OC(C)(C)C)C23CCCCC2(C(C(=O)OC(C)(C)C)=C(OC)C3C(=O)OC(C)(C)C)C1C(=O)OC(C)(C)C (centres undefined); 72.9 µM (inactive)
4. Cc1cccc(C2=NC(C)(C)C(C)(C)N=C2c2cccc(C)n2)n1; > 100 µM (inactive)
5. CCC(=O)OC1CCn2c1nc1c2C(=O)C(C)=C(NC(C)=O)C1=N (centres undefined); 2.6 µM (inactive)

Lookup: Fill in the recorded GI50 for this molecule, with SNB-78 as test system: Cn1cc2ccccc2c1-c1nc(F)nc(OCC(=O)[C@H]2CCC3[C@@H]4CCC5=CC(=O)CC[C@]5(C)C4[C@@H](O)C[C@@]32C)n1 (some centres undefined)
Found: 13.2 µM (inactive)

Lookup: Fill in the recorded GI50 for this molecule, with SNB-78 as test system: "Cc1cccc(NC(=O)c2c(N)[n+]([O-])c3ccccc3[n+]2[O-])c1"
Found: 11.9 µM (inactive)

Lookup: Fill in the recorded GI50 for this molecule, with SNB-78 as test system: "N#Cc1c2nc3ccccc3nc2n2ccc3ccccc3c12"
Found: > 100 µM (inactive)

Lookup: Fill in the recorded GI50 for this molecule, with SNB-78 as test system: "CC1=N/C(=C\c2ccc(/C=C3/N=C(C)OC3=O)cc2)C(=O)O1"
Found: > 100 µM (inactive)

----------
- Test system: OVCAR-3
- assay-method-text: NCI tumour cell line growth inhibition, 48 h
Activity calls are given as the source filed them. Rule as the data show it: active = GI50 up to about 1.1 µM and inactive = higher.
Thanks in advance; please answer with one of these: active, inactive

Lookup: Record lookup: outcome of this test for "CCCCCc1cc2c(cc1O)CC[C@@H]1[C@@H]2CC[C@]2(C)[C@@H](O)CC[C@@H]12" ?
Found: inactive

----------
- System: PC-3
- assay-method-text: NCI tumour cell line growth inhibition, 48 h
The source made the active and inactive calls. Cut-off read from the data, not from the text of the source: active = GI50 up to about 1.1 µM and inactive = higher.
reported-property: GI50

Record excerpt, results attached:
1. Cc1cc2nc(O)c(C(C)C(=O)c3ccc(Cl)cc3)nc2cc1C (stereo not given); 31 µM (inactive)
2. Cc1ccc2c(c1)nc1n2C(N)=Nc2ccccc2S1; 75 µM (inactive)
3. N#Cc1c(-c2ccc(Cl)cc2)c(C#N)c(=O)n(NS(=O)(=O)c2ccccc2)c1-c1ccccc1; > 25 µM (inactive)
4. O=C1/C(=C/c2cccc3ccccc23)Cc2ccccc21; 16.9 µM (inactive)
5. COc1ccc2sc(-n3nc4ccccc4c3Nc3nc4ccc(OC)cc4s3)nc2c1; 2.89 µM (inactive)

Lookup: Fill in the recorded GI50 for this compound, with PC-3 as test system: "Cc1ccc(/N=N/C(=N/c2ccccc2)c2ccc(N(CCC#N)CCC#N)cc2)cc1"
Found: 17.9 µM (inactive)

Lookup: Fill in the recorded GI50 for this compound, with PC-3 as test system: "Clc1ncnc2c1nc(C#Cc1ccccc1)n2Cc1ccccc1"
Found: 40.6 µM (inactive)

Lookup: Fill in the recorded GI50 for this compound, with PC-3 as test system: "CC(C)(C)N1CSC(=S)N(Cc2ccco2)C1"
Found: 3.35 µM (inactive)

Lookup: Fill in the recorded GI50 for this compound, with PC-3 as test system: O=CNC(Cc1c[nH]cn1)C(=O)O (stereo not given)
Found: > 100 µM (inactive)

----------
// GI50 lookup, one value per entry
- System: LXFL 529
- assay-method-text: NCI tumour cell line growth inhibition, 48 h
Active and inactive are the calls of the source. Cut-off read from the data, not from the text of the source: active = GI50 up to about 1.1 µM and inactive = higher.

1. CCOC(=O)C1(C)CCC(C(C(=O)O)C(=O)O)CC1=O (stereo not given); > 100 µM (inactive)

Lookup: Query: GI50; subject: O=c1c2cc(Br)ccc2nc(-c2ccccc2)n1NCC1(O)OCC(O)C(O)C1O (stereo not given)
Found: 92 µM (inactive)

Lookup: Query: GI50; subject: COC(=O)C(=O)C(C(=O)C(=O)Nc1cc(Cl)c(Cl)cc1Cl)c1nc2ccc([N+](=O)[O-])cc2nc1O (stereo not given)
Found: > 100 µM (inactive)

Lookup: Query: GI50; subject: COc1ccc2c(c1)CC1c3c(ccc(OC)c3O)CC2N1C (stereo not given)
Found: 18.3 µM (inactive)

Lookup: Query: GI50; subject: C/C(=N\N)C(CN(C)C)C(c1ccccc1)c1c(O)c2ccccc2oc1=O (stereo not given)
Found: > 100 µM (inactive)

Lookup: Query: GI50; subject: N#CCCN(CCC#N)c1ccc(C(Sc2ccccc2)C(NC(=O)c2cc([N+](=O)[O-])ccc2Cl)C(=O)Sc2ccccc2)cc1 (stereo not given)
Found: 3.69 µM (inactive)

----------
// GI50 lookup, one value per entry
- System: COLO 205
- assay-method-text: NCI tumour cell line growth inhibition, 48 h
Active and inactive are the calls of the source. Cut-off read from the data, not from the text of the source: active = GI50 up to about 1.1 µM and inactive = higher.

Record excerpt, results attached:
1. Cc1ccc(CC(Cc2ccc(C)cc2C(=O)O)C(=O)O)cc1 (stereo not given); > 100 µM (inactive)
2. Cc1ccc(-c2cc(-c3ccccc3)c(C#N)c(=O)n2C2OC(CO)C(O)C(O)C2O)cc1 (stereo not given); > 100 µM (inactive)
3. CC(C)NC(=O)OCc1c(COC(=O)NC(C)C)c(-c2ccc[n+](COC(=O)CC(C)(C)C)c2)n2c1CCC2; 89.3 µM (inactive)
4. CNC(=O)OCc1c(CO)nc(SC)n1C; > 100 µM (inactive)

Lookup: Fill in the recorded GI50 for this compound, with COLO 205 as test system: "CN1CCN(c2ccc(-n3cc(C(=O)O)c(=O)c4cc(F)c(N5CCN(C)CC5)cc43)nc2)CC1"
Found: 25.4 µM (inactive)

----------
- System: HOP-18
- assay-method-text: NCI tumour cell line growth inhibition, 48 h
The source made the active and inactive calls. Rule as the data show it: active = GI50 up to about 1.1 µM and inactive = higher.
reported-property: GI50

1) O=C1CC[C@@H](S(=O)(=O)c2ccccc2)[C@H](/C=C/c2ccccc2)O1; > 100 µM (inactive)
2) Brc1ccc2[nH]c3c(C4=NCCC4)nccc3c2c1; 10.2 µM (inactive)
3) C#CCN1CCN(C(=S)N/N=C(\C)c2ccccn2)CC1; 2.72 µM (inactive)
4) CCOC(=O)C1(C)CCC(C(C(=O)O)C(=O)O)CC1=O (configuration not stated); > 100 µM (inactive)
5) COc1ccc(C(=O)O)c(Cc2ccc3ccccc3c2)c1; > 100 µM (inactive)

Lookup: Fill in the recorded GI50 for this compound, with HOP-18 as test system: "Cc1cccc(NC(=O)c2cccc([N+](=O)[O-])c2O)c1C"
Found: 4.74 µM (inactive)

Lookup: Fill in the recorded GI50 for this compound, with HOP-18 as test system: CCC(/C(=N\Nc1c(Cl)cc(Cl)cc1Cl)c1ccccc1)n1ccnc1C (configuration not stated)
Found: 14.9 µM (inactive)

Lookup: Fill in the recorded GI50 for this compound, with HOP-18 as test system: "Cc1cccc(C)c1NC(=O)CCC/C(CC(=O)c1ccc(F)cc1)=N\NC(=O)C(=O)NN"
Found: > 100 µM (inactive)

Just for reference, ChEMBL document CHEMBL1201862 is where these values come from.
